# EXPERIMENTAL TARGET: 72 kDa type IV collagenase (Homo sapiens, UniProt P08253)
# Sequence (P08253 whole entry): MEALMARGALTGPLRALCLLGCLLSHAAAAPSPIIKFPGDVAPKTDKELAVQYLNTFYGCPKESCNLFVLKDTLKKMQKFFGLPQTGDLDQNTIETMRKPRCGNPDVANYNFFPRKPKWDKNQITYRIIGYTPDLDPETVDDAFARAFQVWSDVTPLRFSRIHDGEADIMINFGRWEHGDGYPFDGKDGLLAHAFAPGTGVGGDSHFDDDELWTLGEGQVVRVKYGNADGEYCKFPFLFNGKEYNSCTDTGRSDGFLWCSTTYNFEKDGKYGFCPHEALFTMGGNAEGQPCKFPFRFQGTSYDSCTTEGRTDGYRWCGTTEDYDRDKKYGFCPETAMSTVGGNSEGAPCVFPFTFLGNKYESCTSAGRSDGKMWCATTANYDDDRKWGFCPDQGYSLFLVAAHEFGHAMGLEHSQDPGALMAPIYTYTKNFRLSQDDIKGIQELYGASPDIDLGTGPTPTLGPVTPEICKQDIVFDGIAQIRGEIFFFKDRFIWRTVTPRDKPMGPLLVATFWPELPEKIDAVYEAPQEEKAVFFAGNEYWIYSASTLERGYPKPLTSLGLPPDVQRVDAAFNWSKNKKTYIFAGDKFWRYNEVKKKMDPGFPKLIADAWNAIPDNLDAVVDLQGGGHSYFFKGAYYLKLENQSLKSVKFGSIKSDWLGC
# EXPERIMENT: Inhibition of recombinant human MMP-2 using Mca-Lys-Pro-Leu-Gly-Leu-Dap(Dnp)-Ala-Arg-NH2 as substrate incubated for 4 hrs measured every 15 secs for 20 mins by fluorimetric assay
Would you mind telling me the reported IC50 of each entry?
Form entry: value (µM) — number only.

The recorded IC50 for `O=C(CNS(=O)(=O)c1ccc(OCc2cccc(F)c2)cc1)NO` is 0.0078

The recorded IC50 for `CC#CCOc1ccc(S(=O)(=O)NCC(=O)NO)cc1` is 0.11

The recorded IC50 for `O=C(CNS(=O)(=O)c1ccc(OCc2ccc(Br)cc2)cc1)NO` is 0.0012

The recorded IC50 for `CN(CC(=O)NO)S(=O)(=O)c1ccc(OCc2cc(Br)cc(Br)c2)cc1` is 1.87

The recorded IC50 for `O=C(CNS(=O)(=O)c1ccc(OCc2cc(Br)cc(-c3cccnc3)c2)cc1)NO` is 1.05

The recorded IC50 for `O=C(CNS(=O)(=O)c1ccc(OCc2cccc(-c3ccccc3)c2)cc1)NO` is 0.041

The recorded IC50 for `O=C(O)CNS(=O)(=O)c1ccc(OCc2cc(Br)cc(Br)c2)cc1` is 125

The recorded IC50 for `O=C(CNS(=O)(=O)c1ccc(OCc2cc(F)cc(F)c2)cc1)NO` is 0.018

The recorded IC50 for `O=C(CNS(=O)(=O)c1ccc(OCc2cccc(Br)c2)cc1)NO` is 0.015

The recorded IC50 for `O=C(CNS(=O)(=O)c1ccc(OCc2cc(Br)cc(Br)c2)cc1)NO` is 1.75

The recorded IC50 for `O=C(CNS(=O)(=O)c1ccc(OCc2cccc3cccnc23)cc1)NO` is 0.67

The recorded IC50 for `O=C(NCCC[C@@H](NS(=O)(=O)c1ccc(OCc2cc(Br)cc(Br)c2)cc1)C(=O)NO)OCc1ccccc1` is 1.44

The recorded IC50 for `O=C(CNS(=O)(=O)c1ccc(OCc2ccc(OC(F)(F)F)cc2)cc1)NO` is 0.0075

The recorded IC50 for `O=C(CNS(=O)(=O)c1ccc(OCc2ccc(-c3ccccc3)cc2)cc1)NO` is 0.048

* * *

# EXPERIMENTAL TARGET: Interstitial collagenase (Homo sapiens, UniProt P03956)
# Sequence (P03956 whole entry): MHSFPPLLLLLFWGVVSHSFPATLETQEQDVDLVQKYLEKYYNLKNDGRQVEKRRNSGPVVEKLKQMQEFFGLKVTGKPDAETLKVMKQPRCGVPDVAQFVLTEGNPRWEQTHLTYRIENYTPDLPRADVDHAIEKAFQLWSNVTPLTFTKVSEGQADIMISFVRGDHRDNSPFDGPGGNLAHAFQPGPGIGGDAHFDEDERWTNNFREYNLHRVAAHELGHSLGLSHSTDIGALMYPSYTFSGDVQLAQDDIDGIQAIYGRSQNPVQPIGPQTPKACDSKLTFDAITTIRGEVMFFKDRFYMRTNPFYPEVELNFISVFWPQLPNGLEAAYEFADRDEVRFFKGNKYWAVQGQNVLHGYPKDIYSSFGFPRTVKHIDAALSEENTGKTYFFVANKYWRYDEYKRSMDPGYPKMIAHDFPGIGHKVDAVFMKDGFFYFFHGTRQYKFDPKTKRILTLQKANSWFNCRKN
# EXPERIMENT: Inhibition of recombinant human MMP-1 using Mca-Lys-Pro-Leu-Gly-Leu-Dap(Dnp)-Ala-Arg-NH2 as substrate incubated for 4 hrs measured every 15 secs for 20 mins by fluorimetric assay
Would you mind telling me the reported pIC50 of each entry?
# pIC50: negative log10 of molar concentration; output just the value

The recorded pIC50 for `O=C(CNS(=O)(=O)c1ccc(OCc2ccc(Br)cc2)cc1)NO` is 3.92

The recorded pIC50 for `O=C(CNS(=O)(=O)c1ccc(OCc2cc(F)cc(F)c2)cc1)NO` is 3.74

The recorded pIC50 for `O=C(NCC[C@@H](NS(=O)(=O)c1ccc(OCc2cc(Br)cc(Br)c2)cc1)C(=O)NO)OCc1ccccc1` is 3.40

* * *

# EXPERIMENTAL TARGET: Matrix metalloproteinase-14 (Homo sapiens, UniProt P50281)
# EXPERIMENT: Inhibition of recombinant human MMP-14 catalytic domain using Mca-Lys-Pro-Leu-Gly-Leu-Dap(Dnp)-Ala-Arg-NH2 as substrate incubated for 4 hrs measured every 15 secs for 20 mins by fluorimetric assay
Would you mind telling me the reported IC50 of each entry?
Form entry: value (µM) — number only.

The recorded IC50 for `O=C(CNS(=O)(=O)c1ccc(OCc2cccc3cccnc23)cc1)NO` is 120

The recorded IC50 for `COc1ccc(-c2cc(Br)cc(COc3ccc(S(=O)(=O)NCC(=O)NO)cc3)c2)cc1` is 170

The recorded IC50 for `O=C(CNS(=O)(=O)c1ccc(OCc2ccc(F)cc2)cc1)NO` is 0.59

The recorded IC50 for `O=C(NCC[C@@H](NS(=O)(=O)c1ccc(OCc2cc(Br)cc(Br)c2)cc1)C(=O)NO)OCc1ccccc1` is 104

The recorded IC50 for `O=C(CNS(=O)(=O)c1ccc(OCc2cccc(F)c2)cc1)NO` is 0.94

The recorded IC50 for `O=C(CNS(=O)(=O)c1ccc(OCc2cccc(OC(F)(F)F)c2)cc1)NO` is 2.9

The recorded IC50 for `O=C(CNS(=O)(=O)c1ccc(OCc2cc(Br)cc(Br)c2)cc1)NO` is 113

The recorded IC50 for `O=C(CNS(=O)(=O)c1ccc(OCc2cccc(Br)c2)cc1)NO` is 1.6

The recorded IC50 for `O=C(CNS(=O)(=O)c1ccc(OCc2cccc(-c3ccccc3)c2)cc1)NO` is 1.7

The recorded IC50 for `O=C(CNS(=O)(=O)c1ccc(OCc2ccc(-c3ccccc3)cc2)cc1)NO` is 72

The recorded IC50 for `O=C(NCCC[C@@H](NS(=O)(=O)c1ccc(OCc2cc(Br)cc(Br)c2)cc1)C(=O)NO)OCc1ccccc1` is 68

The recorded IC50 for `O=C(CNS(=O)(=O)c1ccc(OCc2cc(F)cc(F)c2)cc1)NO` is 0.89

The recorded IC50 for `O=C(CNS(=O)(=O)c1ccc(OCc2ccc(Br)cc2)cc1)NO` is 0.63

The recorded IC50 for `CC#CCOc1ccc(S(=O)(=O)NCC(=O)NO)cc1` is 2.9

The recorded IC50 for `CN(CC(=O)NO)S(=O)(=O)c1ccc(OCc2cc(Br)cc(Br)c2)cc1` is 123

The recorded IC50 for `O=C(CNS(=O)(=O)c1ccc(OCc2ccc(OC(F)(F)F)cc2)cc1)NO` is 7.2

* * *

# EXPERIMENTAL TARGET: Interstitial collagenase (Homo sapiens, UniProt P03956)
# EXPERIMENT: Inhibition of recombinant human MMP-1 using Mca-Lys-Pro-Leu-Gly-Leu-Dap(Dnp)-Ala-Arg-NH2 as substrate incubated for 4 hrs measured every 15 secs for 20 mins by fluorimetric assay
Would you mind telling me the reported IC50 of each entry?

The recorded IC50 for `COc1ccc(-c2cc(Br)cc(COc3ccc(S(=O)(=O)NCC(=O)NO)cc3)c2)cc1` is > 200 µM

The recorded IC50 for `CN(CC(=O)NO)S(=O)(=O)c1ccc(OCc2cc(Br)cc(Br)c2)cc1` is > 200 µM

The recorded IC50 for `O=C(CNS(=O)(=O)c1ccc(OCc2cccc(OC(F)(F)F)c2)cc1)NO` is > 500 µM

The recorded IC50 for `O=C(CNS(=O)(=O)c1ccc(OCc2ccc(-c3ccccc3)cc2)cc1)NO` is > 500 µM
